Values were extracted from patent EP4737473A1.

Known Kd of a selection of compounds
target.or.test.system: His-tag recombinant human C3 protein (Homo sapiens, UniProt P01024)
experiment.notes: BLI affinity assay (Bio-Layer Interferometry, Ni-NTA biosensor, ForteBio Octet)
Assay type: binding
Parameters: purchased Sino Biological Inc
recorded.conditions: 60s association, 90s dissociation, PBS pH 8.0
Positions of bridges follow the written chain, without caps; N, C: chain ends. Non-standard residues stand in square brackets, D forms with d. Residues, ends and D or L forms follow the SMILES beside them. ξ: configuration not given here. Bpa = N[C@@H](Cc1ccc(C(=O)c2ccccc2)cc1)C(=O)O; Trp(1-Me) = Cn1cc(C[C@H](N)C(=O)O)c2ccccc21; ξTrp(5-F) = NC(Cc1c[nH]c2ccc(F)cc12)C(=O)O; 2Nal = N[C@@H](Cc1ccc2ccccc2c1)C(=O)O; Abu = CC[C@H](N)C(=O)O; Aib = CC(C)(N)C(=O)O
Report only the number, with the unit µM understood.

CC[C@H](C)[C@H](NC(C)=O)C(=O)N[C@H]1CSSC[C@@H](C(=O)N[C@H](C(N)=O)[C@@H](C)O)NC(=O)[C@H](CCCNC(=N)N)NC(=O)[C@H](Cc2c[nH]cn2)NC(=O)C(C)(C)NC(=O)CNC(=O)[C@H](Cc2ccc3ccccc3c2)NC(=O)[C@H](CC(=O)O)NC(=O)[C@H](CCC(N)=O)NC(=O)[C@H](Cc2cn(C)c3ccccc23)NC(=O)[C@H](C(C)C)NC1=O [SEQ ID NO.1] (Ac-ICV[Trp(1-Me)]QD[2Nal]G[Aib]HRCT-NH2; disulfide 2-12) = 3.19
CC[C@@H]1NC(=O)[C@@H](NC(=O)[C@@H](NC(C)=O)[C@@H](C)CC)CSSC[C@@H](C(=O)N[C@H](C(N)=O)[C@@H](C)O)NC(=O)[C@H](CCCNC(=N)N)NC(=O)[C@H](Cc2c[nH]cn2)NC(=O)C(C)(C)NC(=O)CNC(=O)C(Cc2c[nH]c3ccc(F)cc23)NC(=O)[C@H](CC(=O)O)NC(=O)[C@H](CCC(N)=O)NC(=O)[C@H](Cc2ccc3ccccc3c2)NC1=O (stereo partly drawn) [SEQ ID NO.5] (Ac-IC[Abu][2Nal]QD[ξTrp(5-F)]G[Aib]HRCT-NH2; disulfide 2-12) = 2.26

Now turn to the next compound.
Return reported Kd; argument: CC[C@H](C)[C@H](NC(C)=O)C(=O)N[C@H]1CSSC[C@@H](C(=O)N[C@H](C(N)=O)[C@@H](C)O)NC(=O)[C@H](CCCNC(=N)N)NC(=O)[C@H](Cc2c[nH]cn2)NC(=O)C(C)(C)NC(=O)CNC(=O)C(Cc2c[nH]c3ccc(F)cc23)NC(=O)[C@H](CC(=O)O)NC(=O)[C@H](CCC(N)=O)NC(=O)[C@H](Cc2ccc(C(=O)c3ccccc3)cc2)NC(=O)[C@H](Cc2ccc(O)cc2)NC1=O (stereo partly drawn) [SEQ ID NO.6] (Ac-ICY[Bpa]QD[ξTrp(5-F)]G[Aib]HRCT-NH2; disulfide 2-12)
39.9

* * *

target.or.test.system: His-tag recombinant human C3 protein (Homo sapiens, UniProt P01024)
experiment.notes: BLI affinity assay (Bio-Layer Interferometry, Ni-NTA biosensor, ForteBio Octet)
Type: binding
Parameters: purchased Sino Biological Inc
recorded.conditions: association rate constant
Positions of bridges follow the written chain, without caps; N, C: chain ends. Non-standard residues stand in square brackets, D forms with d. Residues, ends and D or L forms follow the SMILES beside them. ξ: configuration not given here. Bpa = N[C@@H](Cc1ccc(C(=O)c2ccccc2)cc1)C(=O)O; Trp(7-aza) = N[C@@H](Cc1c[nH]c2ncccc12)C(=O)O; Trp(1-Me) = Cn1cc(C[C@H](N)C(=O)O)c2ccccc21; ξTrp(5-F) = NC(Cc1c[nH]c2ccc(F)cc12)C(=O)O; 2Nal = N[C@@H](Cc1ccc2ccccc2c1)C(=O)O; Api = NC1(C(=O)O)CCNCC1; Abu = CC[C@H](N)C(=O)O; Aib = CC(C)(N)C(=O)O
measure: kon (M⁻¹ s⁻¹)
Report only the number, with the unit M⁻¹ s⁻¹ understood.

CC[C@H](C)[C@H](NC(C)=O)C(=O)N[C@H]1CSSC[C@@H](C(=O)N[C@H](C(N)=O)[C@@H](C)O)NC(=O)[C@H](CCCNC(=N)N)NC(=O)[C@H](Cc2c[nH]cn2)NC(=O)C(C)(C)NC(=O)CNC(=O)[C@H](Cc2ccc3ccccc3c2)NC(=O)[C@H](CC(=O)O)NC(=O)[C@H](CCC(N)=O)NC(=O)[C@H](Cc2cn(C)c3ccccc23)NC(=O)[C@H](C(C)C)NC1=O [SEQ ID NO.1] (Ac-ICV[Trp(1-Me)]QD[2Nal]G[Aib]HRCT-NH2; disulfide 2-12) = 15400
CC[C@@H]1NC(=O)[C@@H](NC(=O)[C@@H](NC(C)=O)[C@@H](C)CC)CSSC[C@@H](C(=O)N[C@H](C(N)=O)[C@@H](C)O)NC(=O)[C@H](CCCNC(=N)N)NC(=O)[C@H](Cc2c[nH]cn2)NC(=O)C(C)(C)NC(=O)CNC(=O)C(Cc2c[nH]c3ccc(F)cc23)NC(=O)[C@H](CC(=O)O)NC(=O)[C@H](CCC(N)=O)NC(=O)[C@H](Cc2ccc3ccccc3c2)NC1=O (stereo partly drawn) [SEQ ID NO.5] (Ac-IC[Abu][2Nal]QD[ξTrp(5-F)]G[Aib]HRCT-NH2; disulfide 2-12) = 13100
CC[C@H](C)[C@H](NC(C)=O)C(=O)N[C@H]1CSSC[C@@H](C(=O)N[C@H](C(N)=O)[C@@H](C)O)NC(=O)[C@H](CCCNC(=N)N)NC(=O)[C@H](Cc2c[nH]cn2)NC(=O)C(C)(C)NC(=O)CNC(=O)C(Cc2c[nH]c3ccc(F)cc23)NC(=O)[C@H](CC(=O)O)NC(=O)[C@H](CCC(N)=O)NC(=O)[C@H](Cc2ccc3ccccc3c2)NC(=O)[C@H](C(C)C)NC1=O (stereo partly drawn) [SEQ ID NO.3] (Ac-ICV[2Nal]QD[ξTrp(5-F)]G[Aib]HRCT-NH2; disulfide 2-12) = 387000
CC[C@H](C)[C@H](NC(C)=O)C(=O)N[C@H]1CSSC[C@@H](C(=O)N[C@H](C(N)=O)[C@@H](C)O)NC(=O)[C@H](CCCNC(=N)N)NC(=O)[C@H](Cc2c[nH]cn2)NC(=O)C(C)(C)NC(=O)CNC(=O)C(Cc2c[nH]c3ccc(F)cc23)NC(=O)[C@H](CC(=O)O)NC(=O)[C@H](CCC(N)=O)NC(=O)[C@H](Cc2ccc(C(=O)c3ccccc3)cc2)NC(=O)[C@H](Cc2ccc(O)cc2)NC1=O (stereo partly drawn) [SEQ ID NO.6] (Ac-ICY[Bpa]QD[ξTrp(5-F)]G[Aib]HRCT-NH2; disulfide 2-12) = 925
CC[C@H](C)[C@H](NC(C)=O)C(=O)N[C@H]1CSSC[C@@H](C(=O)N[C@H](C(N)=O)[C@@H](C)O)NC(=O)[C@H](CCCNC(=N)N)NC(=O)[C@H](Cc2c[nH]cn2)NC(=O)C(C)(C)NC(=O)CNC(=O)C(Cc2c[nH]c3ccc(F)cc23)NC(=O)[C@H](CC(=O)O)NC(=O)[C@H](CCC(N)=O)NC(=O)[C@H](Cc2c[nH]c3ncccc23)NC(=O)[C@H](C(C)C)NC1=O (stereo partly drawn) [SEQ ID NO.2] (Ac-ICV[Trp(7-aza)]QD[ξTrp(5-F)]G[Aib]HRCT-NH2; disulfide 2-12) = 393000

Return reported kon; argument: CC[C@@H]1NC(=O)[C@@H](NC(=O)[C@@H](NC(C)=O)[C@@H](C)CC)CSSC[C@@H](C(=O)N[C@H](C(N)=O)[C@@H](C)O)NC(=O)[C@H](CCCNC(=N)N)NC(=O)[C@H](Cc2c[nH]cn2)NC(=O)C2(CCNCC2)NC(=O)CNC(=O)C(Cc2c[nH]c3ccc(F)cc23)NC(=O)[C@H](CC(=O)O)NC(=O)[C@H](CCC(N)=O)NC(=O)[C@H](Cc2cn(C)c3ccccc23)NC1=O (stereo partly drawn) [SEQ ID NO.4] (Ac-IC[Abu][Trp(1-Me)]QD[ξTrp(5-F)]G[Api]HRCT-NH2; disulfide 2-12)
112000
